Test system: Homo sapiens (human subject panel, olfactory perception)
assay-name: perceived odor intensity rating (rating 0-100); higher = stronger perceived smell
condition-details: odor dilution in paraffin oil: 1/1,000
Where a name gives a salt, the structure may show the parent alone.
readout-type: perceived odor intensity rating
Note: the reply should be a number with no unit written.

Short answer for CCCCOC=O [Butyl formate] : perceived odor intensity rating was 51.8

Short answer for CC(C)C=O [Isobutyraldehyde] : perceived odor intensity rating was 77.5

Short answer for CCCCCCCCCCCO [1-undecanol] : perceived odor intensity rating was 42.8

Short answer for COc1ccccc1 [anisole] : perceived odor intensity rating was 75.3

Short answer for c1ccc(-c2ccccc2)cc1 [Biphenyl] : perceived odor intensity rating was 31.7

Short answer for CCCCCC(C)=O [2-heptanone] : perceived odor intensity rating was 71.1

Short answer for CC(C)CO [2-methyl-1-propanol] : perceived odor intensity rating was 42.5

* * *

System: Homo sapiens (human subject panel, olfactory perception)
assay-name: perceived odor intensity rating (rating 0-100); higher = stronger perceived smell
condition-details: odor dilution in paraffin oil: 1/1,000
Label rule, in plain words: perceived odor intensity rating of 60 and up is yes, under 60 is no.

[Q] Textbook exercise: given the entry CC(C)CCCC(C)CCO (stereo not given) [3,7-Dimethyl-1-octanol] , state whether its perceived odor intensity rating is greater than or equal to 60.
[A] yes

[Q] Textbook exercise: given the entry CC(=O)c1ccc2ccccc2c1 [Methyl beta-naphthyl ketone] , state whether its perceived odor intensity rating is greater than or equal to 60.
[A] yes

[Q] Textbook exercise: given the entry O=C(O)/C=C/C(=O)O [Fumaric acid] , state whether its perceived odor intensity rating is greater than or equal to 60.
[A] no

[Q] Textbook exercise: given the entry C[C@@]12C=CC[C@H]1[C@@H]1CCC3=CC(=O)CC[C@]3(C)[C@H]1CC2 [Androstadienone] , state whether its perceived odor intensity rating is greater than or equal to 60.
[A] yes

[Q] Textbook exercise: given the entry c1ccc(COCc2ccccc2)cc1 [Benzyl ether] , state whether its perceived odor intensity rating is greater than or equal to 60.
[A] no

* * *

System: Homo sapiens (human subject panel, olfactory perception)
assay-name: perceived odor intensity rating (rating 0-100); higher = stronger perceived smell
condition-details: odor dilution in paraffin oil: 1/1,000
Label rule, in plain words: perceived odor intensity rating of 70 and up is rule met, under 70 is rule not met.

[Q] Textbook exercise: given the entry CCOC(=O)CC(=O)OCC [Diethyl malonate] , state whether its perceived odor intensity rating is greater than or equal to 70.
[A] rule not met

[Q] Textbook exercise: given the entry "O=C(Cc1ccccc1)Cc1ccccc1" , state whether its perceived odor intensity rating is greater than or equal to 70.
[A] rule met

[Q] Textbook exercise: given the entry "CCCCCCCCCO" , state whether its perceived odor intensity rating is greater than or equal to 70.
[A] rule not met

[Q] Textbook exercise: given the entry "CCCCCCCC=O" , state whether its perceived odor intensity rating is greater than or equal to 70.
[A] rule not met

[Q] Textbook exercise: given the entry "CC(C)[C@H](N)C(=O)O" , state whether its perceived odor intensity rating is greater than or equal to 70.
[A] rule not met

[Q] Textbook exercise: given the entry "C=CCc1ccc(O)c(OC)c1" , state whether its perceived odor intensity rating is greater than or equal to 70.
[A] rule met

[Q] Textbook exercise: given the entry CCCCCCCCCC1CCCC(=O)O1 (configuration not stated) [delta-Tetradecalactone (replicate)] , state whether its perceived odor intensity rating is greater than or equal to 70.
[A] rule not met

[Q] Textbook exercise: given the entry CCC(C)c1nccs1 (configuration not stated) , state whether its perceived odor intensity rating is greater than or equal to 70.
[A] rule met

[Q] Textbook exercise: given the entry CCCCCCC1CCCC(=O)O1 (configuration not stated) , state whether its perceived odor intensity rating is greater than or equal to 70.
[A] rule not met
